Here, each record is paired with measured survival data.
tested on: Wild type; assay: S. aureus survival, RN4220 and DeltatarO strains – OD600, teichoic acid synthesis inhibitors, primary screen (AID 463173); settings: S. aureus RN4220 wild type/DeltatarO growth, OD600, 18 h, active compounds read low, screened at 18.75 µg/mL (by protocol)
The whole screen tested about 52,000 compounds, of which about 1,700 (3.3%) were called active. The full list was thinned out, with actives kept by preference.
Number only, in %; omit the unit.

Example cases with answers are listed next.
| molecule | recordedMeasurement |
| --- | --- |
| Cc1ccc(C(=O)CC2(O)C(=O)N(CCc3ccccc3)c3ccc(Cl)cc32)cc1 (centres undefined) | 3 |
| Cc1nc2c(C(=O)NCCc3ccccc3)c[nH]n2c(=O)c1Cc1ccccc1F | -15 |
| Cc1nc2c(C(=O)NCCc3ccccc3)c[nH]n2c(=O)c1Cc1ccc(F)cc1Cl | -15 |
| O=C(NCCc1ccccc1)c1ccc2c(c1)N(Cc1ccc(F)cc1Cl)C(=O)CS2 | 67 |

What is its survival for Wild type? Entry: `Cc1nc2nc(NC(=O)c3ccc(F)cc3)[nH]n2c(=O)c1Cc1ccccc1`
88

What is its survival for Wild type? Entry: `NS(=O)(=O)c1ccc(CCNC(=O)c2ccc3nc(Cc4ccccc4)oc3c2)cc1`
81

What is its survival for Wild type? Entry: CCc1ccc(C(=O)CC2(O)C(=O)N(C(C)C)c3ccccc32)cc1 (centres undefined)
111

====

system: Wild type; assay: S. aureus survival, RN4220 and DeltatarO strains – OD600, teichoic acid synthesis inhibitors, primary screen (AID 463173); details: S. aureus RN4220 wild type/DeltatarO growth, OD600, 18 h, active compounds read low, screened at 18.75 µg/mL (by protocol)
Screen size: about 52,000 compounds; about 1,700 (3.3%) were called active. Shown is part of a subset that was picked to be rich in actives.
readout: survival

Given the molecule `Cc1ccc(-c2nc3ccccn3c2Nc2c(C)cccc2C)o1` , what is its reported survival?
-20% (active)

Given the molecule `O=S(=O)(c1cc(Cl)ccc1Cl)N1CCCC1` , what is its reported survival?
78% (inactive)

Given the molecule `Cc1ccc(-c2nc3ccccn3c2Nc2ccc3c(c2)OCO3)o1` , what is its reported survival?
48% (inactive)

Given the molecule `Cc1c(NC=O)c(=O)n(-c2ccccc2)n1C` , what is its reported survival?
107% (inactive)

Given the molecule `Cc1ccn2c(Nc3ccc4c(c3)OCCO4)c(-c3ccc(C)o3)nc2c1` , what is its reported survival?
75% (inactive)

Given the molecule CCOc1ccc(NC(=O)C(CC)n2c(=O)c(-c3ccccc3NC(C)=O)nc3ccccc32)cc1 (centres undefined) , what is its reported survival?
64% (inactive)

Given the molecule `COc1ccc(CCNC(=O)CCn2c(=O)c3ccccc3n(Cc3ccccc3)c2=O)cc1OC` , what is its reported survival?
97% (inactive)

Given the molecule O=S(=O)(NCC(c1ccco1)S(=O)(=O)c1cccs1)c1ccc(F)c(C(F)(F)F)c1 (centres undefined) , what is its reported survival?
32% (inactive)

Given the molecule `Cc1ccc(-c2nc3ccc(Cl)cn3c2Nc2ccc3c(c2)OCCO3)o1` , what is its reported survival?
88% (inactive)

Given the molecule `O=C(CCN1CCCCC1)c1ccccc1` , what is its reported survival?
92% (inactive)

Given the molecule `Cc1ccc2nc(-c3ccc(C)o3)c(Nc3ccc4c(c3)OCCO4)n2c1` , what is its reported survival?
19% (active)

Given the molecule `O=C(CSc1ncc2c(n1)-c1ccccc1N(Cc1ccc(F)cc1)S2(=O)=O)NCCc1ccccc1` , what is its reported survival?
73% (inactive)

Given the molecule `CC(C)c1ccc2oc(-c3cc(NC(=O)c4cccs4)ccc3Cl)nc2c1` , what is its reported survival?
7% (active)

Given the molecule `Cc1c(C(=O)Nc2ccccc2Br)oc2ccc(S(=O)(=O)N3CCCCCC3)cc12` , what is its reported survival?
83% (inactive)
